- Experimental System: tandem GAFab domains of CyaB2 (residues S77 to L431, GST fusion) (Nostoc sp. PCC 7120 (Anabaena sp. PCC 7120))
- Method Notes: biochemical
- Type: binding
- Condition Description: tandem GAFab; ∼1 nM 3H-cAMP; read-out: IC50, competition with 3H-cAMP binding
Assay Readout: IC50 (µM)

Nc1nc2c(ncn2[C@@H]2O[C@@H]3COP(=O)(O)O[C@H]3[C@H]2O)c(=O)[nH]1 [cGMP, guanosine 3′, 5′—cyclic monophosphate]; 2650

---

- Experimental System: tandem GAFab domains of CyaB2 (residues S77 to L431, GST fusion) (Nostoc sp. PCC 7120 (Anabaena sp. PCC 7120), UniProt P94182)
- Sequence (P94182 77-431): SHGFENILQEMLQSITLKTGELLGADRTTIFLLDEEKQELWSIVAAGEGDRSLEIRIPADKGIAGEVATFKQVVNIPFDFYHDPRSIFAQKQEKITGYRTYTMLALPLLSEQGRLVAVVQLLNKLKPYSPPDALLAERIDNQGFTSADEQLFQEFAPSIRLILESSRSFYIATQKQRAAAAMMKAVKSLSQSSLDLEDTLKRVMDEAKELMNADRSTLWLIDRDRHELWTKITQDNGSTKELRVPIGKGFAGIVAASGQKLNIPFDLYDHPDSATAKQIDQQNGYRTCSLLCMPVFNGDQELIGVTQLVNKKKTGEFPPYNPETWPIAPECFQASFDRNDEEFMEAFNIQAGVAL
- Method Notes: biochemical
- Format: binding
pIC50: −log10 of the molar value.
Assay Readout: pIC50

Nc1ncnc2c1ncn2[C@@H]1O[C@@H]2COP(=O)(O)O[C@H]2[C@H]1O [cAMP, adenosine 3′, 5′—cyclic monophosphate]; 7.30

---

- Experimental System: isolated GAFb domain of CyaB2 (residues Leu 270 to Leu 431, GST fusion) (Nostoc sp. PCC 7120 (Anabaena sp. PCC 7120))
- Method Notes: Cyclic nucleotide binding assay (3H-cAMP competition), GST-GAFb
- Condition Description: isolated GAFb; ∼1 nM 3H-cAMP
pIC50: −log10 of the molar value.
Assay Readout: pIC50

Nc1nc2c(ncn2[C@@H]2O[C@@H]3COP(=O)(O)O[C@H]3[C@H]2O)c(=O)[nH]1 [cGMP, guanosine 3′, 5′—cyclic monophosphate]; 5.12

---

- Experimental System: isolated GAFb domain of CyaB2 (residues Leu 270 to Leu 431, GST fusion) (Nostoc sp. PCC 7120 (Anabaena sp. PCC 7120), UniProt P94182)
- Sequence (P94182 270-431): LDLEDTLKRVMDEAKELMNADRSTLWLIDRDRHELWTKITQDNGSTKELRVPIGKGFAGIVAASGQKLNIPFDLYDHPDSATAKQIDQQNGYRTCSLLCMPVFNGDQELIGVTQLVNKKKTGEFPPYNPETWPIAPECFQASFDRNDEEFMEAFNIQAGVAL
- Method Notes: Cyclic nucleotide binding assay (3H-cAMP competition), GST-GAFb
Assay Readout: Kd

Nc1ncnc2c1ncn2[C@@H]1O[C@@H]2COP(=O)(O)O[C@H]2[C@H]1O [cAMP, adenosine 3′, 5′—cyclic monophosphate]; 800 nM
